system: Hepatitis C virus; assay: Antiviral activity against HCV genotype 1b replicon infected in human HuH7 cells at 100 uM after 72 hrs by bright-glo luciferase reporter gene assay relative to control; type: functional, Hepacivirus hominis; conditions: subtype 1b, Huh-7, 72 h
Readings of inhibition at 100 µM for the listed molecules

Some entries whose results are on file:
CC=CCOc1ccn([C@@H]2O[C@H](CO[P@@](=O)(N[C@@H](C)C(=O)OC(C)C)Oc3ccccc3)[C@@H](O)[C@@]2(C)F)c(=O)n1 (mixture of isomers) : 66.3%
CC(C)OC(=O)[C@H](C)N[P@](=O)(OC[C@H]1O[C@@H](n2ccnc(N)c2=O)[C@](C)(O)[C@@H]1O)Oc1ccccc1 : 99.8%
C[C@@]1(O)[C@H](O)[C@@H](CO)O[C@H]1n1ccnc(N)c1=O : 22.3%

Now consider a different molecule.
Q. Quick one: inhibition at 100 µM of CC(C)OC(=O)[C@H](C)N[P@](=O)(OC[C@@]1(C)O[C@@H](n2ccnc(N)c2=O)[C@H](O)[C@@H]1O)Oc1ccccc1 ?
A. 85.1%

---

assay: Stability in human liver microsomes assessed as parent compound remaining at 0.1 uM preincubated with MgCl2 for 10 mins followed by NADPH addition measured after 17 mins by LC-MS/MS analysis; type: ADME, Microsome; conditions: liver microsomes, read-out: Stability
OBSERVABLE: remaining at 17 min, 0.1 µM (%)
// return numeric value only (unit: %, not printed)

Q. # query: remaining at 17 min, 0.1 µM of entry CC(C)COC(=O)n1c(=O)ccn([C@@H]2O[C@H](CO[P@@](=O)(N[C@@H](C)C(=O)OC(C)C)Oc3ccccc3)[C@@H](O)[C@@]2(C)F)c1=O
A. 0

---

assay: Cytotoxicity against human HuH7 cells infected with HCV genotype 1b replicon after 72 hrs by CellTiter-Fluor reagent based fluorescence assay; type: cell-based, Huh-7
OBSERVABLE: CC50 at 72 h

Sample answers from the record:
CCNc1nccn([C@@H]2O[C@H](CO)[C@@H](O)[C@@]2(C)O)c1=O : > 100 µM
CC(C)OC(=O)[C@H](C)N[P@](=O)(OC[C@H]1O[C@@H](n2ccc(Oc3ccccc3)nc2=O)[C@](C)(F)[C@@H]1O)Oc1ccccc1 : > 20 µM
C[C@@]1(O)[C@H](O)[C@@H](CO)O[C@H]1n1ccnc(N)c1=O : > 100 µM

Now examine the next entry.
Q. Value lookup for CC50 at 72 h; key = CC(C)OC(=O)[C@H](C)N[P@](=O)(OC[C@H]1O[C@@H](n2ccc(=O)n(C(=O)OCc3ccccc3)c2=O)[C@](C)(F)[C@@H]1O)Oc1ccccc1
A. > 10 µM

---

test: Stability in human liver microsomes assessed as parent compound remaining at 0.1 uM preincubated with MgCl2 for 10 mins followed by NADPH addition measured after 7 mins by LC-MS/MS analysis; type: ADME, Microsome; conditions: read-out: Stability
Measured remaining at 7 min, 0.1 µM, listed per entry.
Respond with the bare value in %.

CC(C)OC(=O)OC(C)n1c(=O)ccn([C@@H]2O[C@H](CO[P@@](=O)(N[C@@H](C)C(=O)OC(C)C)Oc3ccccc3)[C@@H](O)[C@@]2(C)F)c1=O (some centres not stated) : 51.2

Q. Sample CC(C)COC(=O)n1c(=O)ccn([C@@H]2O[C@H](CO[P@@](=O)(N[C@@H](C)C(=O)OC(C)C)Oc3ccccc3)[C@@H](O)[C@@]2(C)F)c1=O — what was its remaining at 7 min, 0.1 µM?
A. 3.5

---

assay: Cytotoxicity against human HuH7 cells infected with HCV genotype 1b replicon after 72 hrs by CellTiter-Fluor reagent based fluorescence assay; format: cell-based, Huh-7
OBSERVABLE: CC50 at 72 h

Q. Query: CC50 at 72 h; subject: C[C@]1(CO)O[C@@H](n2ccnc(C(N)=O)c2=O)[C@H](O)[C@@H]1O
A. > 100 µM

Q. What value of CC50 at 72 h has been recorded for this entry: C#CCOc1ccn([C@@H]2O[C@H](CO[P@@](=O)(N[C@@H](C)C(=O)OC(C)C)Oc3ccccc3)[C@@H](O)[C@@]2(C)F)c(=O)n1
A. > 20 µM

Q. Fill blank: measured CC50 at 72 h of the compound CC(C)=CCOc1ccn([C@@H]2O[C@H](CO[P@@](=O)(N[C@@H](C)C(=O)OC(C)C)Oc3ccccc3)[C@@H](O)[C@@]2(C)F)c(=O)n1 is ____.
A. > 20 µM

Q. What measured CC50 at 72 h goes with CCOC(=O)n1c(=O)ccn([C@@H]2O[C@H](CO[P@@](=O)(N[C@@H](C)C(=O)OC(C)C)Oc3ccccc3)[C@@H](O)[C@@]2(C)F)c1=O ?
A. > 10 µM

Q. Using the record for CC(C)OC(=O)[C@@H](C)N[P@@](=O)(OC[C@H]1O[C@@H](n2ccnc(N)c2=O)[C@](C)(O)[C@@H]1O)Oc1ccccc1 , report its CC50 at 72 h.
A. > 100 µM

Q. Fill in the blank: the reported CC50 at 72 h of CC(C)OC(=O)[C@H](C)N[P@](=O)(OC[C@H]1O[C@@H](n2cc(C(N)=O)ncc2=O)[C@](C)(O)[C@@H]1O)Oc1ccccc1 is ____.
A. > 100 µM

Q. Item C[C@@]1(O)[C@H](O)[C@@H](CO)O[C@H]1n1cc(C(N)=O)ncc1=O has what recorded CC50 at 72 h?
A. > 100 µM

---

experiment: Cytotoxicity against human HuH7 cells infected with HCV genotype 1b replicon after 72 hrs by CellTiter-Fluor reagent based fluorescence assay; format: cell-based, Huh-7
OBSERVABLE: CC50 at 72 h

Before answering, review these 2 worked examples.
CCCCCOC(=O)n1c(=O)ccn([C@@H]2O[C@H](CO[P@@](=O)(N[C@@H](C)C(=O)OC(C)C)Oc3ccccc3)[C@@H](O)[C@@]2(C)F)c1=O : > 10 µM
C=CCOc1ccn([C@@H]2O[C@H](CO[P@@](=O)(N[C@@H](C)C(=O)OC(C)C)Oc3ccccc3)[C@@H](O)[C@@]2(C)F)c(=O)n1 : > 20 µM

Q. Any idea what CC50 at 72 h was measured for COc1ccn([C@@H]2O[C@H](CO[P@@](=O)(N[C@@H](C)C(=O)OC(C)C)Oc3ccccc3)[C@@H](O)[C@@]2(C)F)c(=O)n1 ?
A. > 20 µM

# credit: ChEMBL document CHEMBL4411327
